Just for reference, PubChem BioAssay (EPA / NIEHS) is where these values come from.

# System Tested: human Serotonin, 5-Hydroxytryptamine Receptor 5A (5HT5A), HTR5A (gene 3361)
# Experiment Description: NVS_GPCR_h5HT5A: NovaScreen (NVS) G Protein-Coupled Receptor Assay for human Serotonin, 5-Hydroxytryptamine Receptor 5A (5HT5A) (AID 2283251)
Results filed as inconclusive are left out. Activity calls are given as the source filed them. How the source made its calls: active means hit-call score of the fitted dose curve at least 0.9, where 1 is the maximum; inconclusive means response in the unintended direction; inactive means score below 0.9.
Measured Attribute: AC50

>>> value("CCNc1nc(N)nc(Cl)n1")
"inactive"
>>> value("Oc1ccc(C(c2ccc(O)cc2)C(Cl)(Cl)Cl)cc1")
"6.9 µM (active)"
>>> value("CCOC(=O)C(C)Oc1ccc(Oc2cnc3cc(Cl)ccc3n2)cc1 (centres undefined)")
"inactive"
>>> value("C[C@]12CC[C@@H]3c4ccc(O)cc4C[C@@H](CCCCCCCCCS(=O)CCCC(F)(F)C(F)(F)F)[C@H]3[C@@H]1CC[C@@H]2O (some centres undefined)")
"inactive"

---

# Read-out: Macrophage colony-stimulating factor (MCSF), CSF1 (gene 1435)
# Experiment Description: BSK_CASM3C_MCSF: BioMAP Diversity Plus: CASM3C Assay for Macrophage colony-stimulating factor (MCSF) Biomarker Activity (AID 2283044);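 further: M-CSF protein amount quantified by ELISA after 24 h exposure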
# Reported Conditions: primary human coronary artery smooth muscle cells; actives raise or lower the signal
Activity calls are given as the source filed them. The calls were made as follows: active = hit-call score of the fitted dose curve at least 0.9, where 1 is the maximum; inactive = score below 0.9.
Give your call using only these classes: active, inactive

>>> class("CCOC(=O)C(C)Oc1ccc(Oc2cnc3cc(Cl)ccc3n2)cc1 (stereo unspecified)")
"inactive"
>>> class("CC(C)(c1ccc(O)cc1)c1ccc(O)cc1")
"inactive"
>>> class("CSC(=O)c1cccc2nnsc12")
"inactive"
>>> class("COC(=O)CSc1cc(N=c2sc(=O)n3n2CCCC3)c(F)cc1Cl")
"active"
>>> class("CCC(O)=C1C(=O)CC(C(=O)O)CC1=O (stereo unspecified)")
"inactive"

Qu. Which outcome did this test record for the molecule CCOC(=O)COc1cc(-n2ncc(C(F)(F)F)c(C)c2=O)c(F)cc1Cl ?
Ans. inactive

Qu. Which outcome did this test record for the molecule CCCCOCCOCCOCc1cc2c(cc1CCC)OCO2 ?
Ans. inactive

Qu. Which outcome did this test record for the molecule CCOC(=O)[C@H](C)Oc1ccc(Oc2nc3ccc(Cl)cc3o2)cc1 ?
Ans. inactive

Qu. Which outcome did this test record for the molecule O=C(Nc1ccc([N+](=O)[O-])cc1Cl)c1cc(Cl)ccc1O ?
Ans. inactive

Qu. Which outcome did this test record for the molecule CC(=O)[C@H]1CC[C@H]2[C@@H]3CCC4=CC(=O)CC[C@]4(C)[C@H]3CC[C@]12C ?
Ans. inactive

Qu. Which outcome did this test record for the molecule CC(=O)S[C@@H]1CC2=CC(=O)CC[C@]2(C)[C@H]2CC[C@@]3(C)[C@@H](CC[C@@]34CCC(=O)O4)[C@H]12 ?
Ans. inactive

---

# Read-out: Bcl-2 (BAX) gene, BAX (gene 581)
# Experiment Description: LTEA_HepaRG_BAX: Life Technologies and Expression Analysis (LTEA) Assay for Bcl-2 (BAX) gene using HepaRG (AID 2283470)
# Reported Conditions: mRNA level, 48 h; actives raise or lower the signal
Active and inactive are the calls of the source. How the source made its calls: active means hit-call score of the fitted dose curve at least 0.9, where 1 is the maximum; inactive means score below 0.9.
Give your call using only these classes: active, inactive

Before answering, review these 6 worked examples.
>>> class("COC(=O)CSc1cc(N=c2sc(=O)n3n2CCCC3)c(F)cc1Cl")
"inactive"
>>> class("CC(=O)[C@H]1CC[C@H]2[C@@H]3CCC4=CC(=O)CC[C@]4(C)[C@H]3CC[C@]12C")
"active"
>>> class("CCCOC(=O)NCCCN(C)C")
"inactive"
>>> class("CSC(=O)c1cccc2nnsc12")
"inactive"
>>> class("CN(C)C(=O)Nc1ccc(Cl)c(Cl)c1")
"inactive"
>>> class("CCCCOCCOCCOCc1cc2c(cc1CCC)OCO2")
"inactive"

Qu. Which outcome did this test record for the compound N#CSCSc1nc2ccccc2s1 ?
Ans. inactive
